# studyConditions: 288.15 K; 101.32 kPa; Liquid
outcomeMeasure: viscosity (mPa·s)
Give bare numbers, in mPa·s.

For each of the items listed, what is its viscosity?
1. CCCO
2. CCO

Key:
1. 2.504
2. 1.317

Please state, for each entry, its recorded viscosity.
1. CO
2. CCCCO
3. CCCCCl

Key:
[0.627, 3.394, 0.472]

====

# assayRemarks: xn = mol fraction of the nth substance listed
# studyConditions: 288.15 K; 101.32 kPa; Liquid; x2 = 0.7
outcomeMeasure: mass density (kg/m3)
Give bare numbers, in kg/m3.

>>> endpointresult("CCCCCl [1-chlorobutane] + CO")
844.2
>>> endpointresult("CCCCCl [1-chlorobutane] + CCO")
835.8
>>> endpointresult("CCCCCl [1-chlorobutane] + CCCCO")
839.4

API: the following record is the query input.
Exercise: Please report the recorded mass density for CCCCCl [1-chlorobutane] + CCCO .
Key: 839.2

====

# assayRemarks: refractive index (Na D-line) (dimensionless); xn = mol fraction of the nth substance listed
# studyConditions: 288.15 K; 101.32 kPa; Liquid; x2 = 0.2
For each entry below, report its refractive index value.
One number for each entry.

Use the examples below as a reference point.
>>> endpointresult("CCCCCl [1-chlorobutane] + CCCCO")
1.4035
>>> endpointresult("CCCCCl [1-chlorobutane] + CCCO")
1.4013
>>> endpointresult("CCCCCl [1-chlorobutane] + CO")
1.3978

In the following, a different molecule is considered.
Exercise: Entry CCCCCl [1-chlorobutane] + CCO has what refractive index?
Key: 1.3988

====

# assayRemarks: refractive index (Na D-line) (dimensionless); xn = mol fraction of the nth substance listed
# studyConditions: 288.15 K; 101.32 kPa; Liquid; x2 = 0.4
Would you mind telling me the reported refractive index of each entry?
Answers are plain numbers.

>>> endpointresult("CCCCCl [1-chlorobutane] + CCCO")
1.3984

Parameters: items (list). Returns: refractive index for each item.
1. CCCCCl [1-chlorobutane] + CO
2. CCCCCl [1-chlorobutane] + CCCCO
3. CCCCCl [1-chlorobutane] + CCO

Key:
1: 1.3885; 2: 1.4029; 3: 1.3925

====

# assayRemarks: refractive index (Na D-line) (dimensionless)
# studyConditions: 298.15 K; 101.33 kPa; Liquid
outcomeMeasure: refractive index
Answers are plain numbers.

>>> endpointresult("CCO")
1.3591
>>> endpointresult("CCCCO")
1.3972

Hi, could you look up refractive index for each item in my list?
1. CO
2. CCCCCl
3. CCCO

Key:
1: 1.3275; 2: 1.3993; 3: 1.3829

====

# assayRemarks: xn = mol fraction of the nth substance listed
# studyConditions: 288.15 K; 101.32 kPa; Liquid; x2 = 0.9
outcomeMeasure: mass density (kg/m3)
Answers are plain numbers, in kg/m3.

Field: example entries. Status: answers known.
>>> endpointresult("CCCCCl [1-chlorobutane] + CCCO")
819.2
>>> endpointresult("CCCCCl [1-chlorobutane] + CCO")
810
>>> endpointresult("CCCCCl [1-chlorobutane] + CCCCO")
822.6

Exercise: Endpoint output: mass density of CCCCCl [1-chlorobutane] + CO . Value?
Key: 815.9

====

# assayRemarks: xn = mol fraction of the nth substance listed
# studyConditions: 298.15 K; 101.32 kPa; Liquid; x2 = 0.9
± gives the expanded uncertainty stated by the source.
outcomeMeasure: viscosity

Solved entries (count: 3):
>>> endpointresult("CCCCCl [1-chlorobutane] + CCCCO")
"2.019 ± 0.024 mPa·s"
>>> endpointresult("CCCCCl [1-chlorobutane] + CCO")
"0.903 ± 0.012 mPa·s"
>>> endpointresult("CCCCCl [1-chlorobutane] + CCCO")
"1.531 ± 0.018 mPa·s"

Below: the item to evaluate.
Exercise: Data request, read-out viscosity, for CCCCCl [1-chlorobutane] + CO
Key: 0.521 ± 0.009 mPa·s

====

# assayRemarks: refractive index (Na D-line) (dimensionless); xn = mol fraction of the nth substance listed
# studyConditions: 308.15 K; 101.32 kPa; Liquid; x2 = 0.95
I'd appreciate it if you could supply refractive index values for the items below.
One number for each entry.

>>> endpointresult("CCCCCl [1-chlorobutane] + CCCO")
1.3798
>>> endpointresult("CCCCCl [1-chlorobutane] + CCCCO")
1.3933
>>> endpointresult("CCCCCl [1-chlorobutane] + CO")
1.3298

Exercise: For CCCCCl [1-chlorobutane] + CCO , what is its reported refractive index?
Key: 1.3581

====

# assayRemarks: xn = mol fraction of the nth substance listed
# studyConditions: 308.15 K; 101.32 kPa; Liquid; x2 = 0.8
outcomeMeasure: viscosity (mPa·s)
Answers are plain numbers, in mPa·s.

>>> endpointresult("CCCCCl [1-chlorobutane] + CO")
0.445

Please give viscosity, item by item, for the list that follows.
1. CCCCCl [1-chlorobutane] + CCO
2. CCCCCl [1-chlorobutane] + CCCO

Key:
[0.67, 0.989]

Exercise: Requested field: viscosity. Item: CCCCCl [1-chlorobutane] + CCCCO
Key: 1.251

====

Kindly state refractive index for each of the entries shown.
# assayRemarks: refractive index (Na D-line) (dimensionless); xn = mol fraction of the nth substance listed
# studyConditions: 308.15 K; 101.32 kPa; Liquid; x2 = 0.3
± gives the expanded uncertainty stated by the source.

Answered cases to consult:
>>> endpointresult("CCCCCl [1-chlorobutane] + CCCCO")
"1.3931 ± 0.0006"
>>> endpointresult("CCCCCl [1-chlorobutane] + CO")
"1.3834 ± 0.0006"
>>> endpointresult("CCCCCl [1-chlorobutane] + CCCO")
"1.3895 ± 0.0006"

Consider the record given below.
Exercise: Requested read-out: refractive index. Entry: CCCCCl [1-chlorobutane] + CCO
Key: 1.3855 ± 0.0006

====

Give mass density for every item shown.
# assayRemarks: xn = mol fraction of the nth substance listed
# studyConditions: 298.15 K; 101.32 kPa; Liquid; x2 = 0.4
Answers are plain numbers, in kg/m3.

>>> endpointresult("CCCCCl [1-chlorobutane] + CCCCO")
852.4
>>> endpointresult("CCCCCl [1-chlorobutane] + CO")
859.6
>>> endpointresult("CCCCCl [1-chlorobutane] + CCCO")
853.5

Exercise: Would you kindly share the measured mass density for CCCCCl [1-chlorobutane] + CCO ?
Key: 853.4

====

# assayRemarks: xn = mol fraction of the nth substance listed
# studyConditions: 298.15 K; 101.32 kPa; Liquid; x2 = 0.05
Please respond with reported viscosity for every item in the list.
Give bare numbers, in mPa·s.

Check out these entries, answers already filled in.
>>> endpointresult("CCCCCl [1-chlorobutane] + CCCCO")
0.437
>>> endpointresult("CCCCCl [1-chlorobutane] + CCO")
0.424
>>> endpointresult("CCCCCl [1-chlorobutane] + CO")
0.416

Moving on to another molecule below.
Exercise: Any idea what viscosity was measured for CCCCCl [1-chlorobutane] + CCCO ?
Key: 0.426

====

# assayRemarks: xn = mol fraction of the nth substance listed
# studyConditions: 308.15 K; 101.32 kPa; Liquid; x2 = 0.7
outcomeMeasure: viscosity (mPa·s)
One number for each entry, in mPa·s.

Answered cases to consult:
>>> endpointresult("CCCCCl [1-chlorobutane] + CO")
0.431
>>> endpointresult("CCCCCl [1-chlorobutane] + CCCCO")
1

Please supply viscosity for each of the following items, keeping them in order.
1. CCCCCl [1-chlorobutane] + CCCO
2. CCCCCl [1-chlorobutane] + CCO

Key:
1. 0.804
2. 0.581

====

# assayRemarks: refractive index (Na D-line) (dimensionless)
# studyConditions: 288.15 K; 101.33 kPa; Liquid
Numbers after ± are expanded uncertainties.
Answer each item with its documented refractive index.

Sample answers from the record:
>>> endpointresult("CCCCCl")
"1.4045 ± 0.0006"
>>> endpointresult("CO")
"1.3303 ± 0.0006"
>>> endpointresult("CCCO")
"1.3869 ± 0.0006"
>>> endpointresult("CCCCO")
"1.401 ± 0.0006"

Exercise: I'd like to know its refractive index. The compound in question is CCO
Key: 1.363 ± 0.0006

====

For each entry below, report its viscosity value.
# assayRemarks: xn = mol fraction of the nth substance listed
# studyConditions: 288.15 K; 101.32 kPa; Liquid; x2 = 0.95
Give bare numbers, in mPa·s.

Example compounds with recorded viscosity:
>>> endpointresult("CCCCCl [1-chlorobutane] + CCCO")
2.2
>>> endpointresult("CCCCCl [1-chlorobutane] + CCO")
1.209
>>> endpointresult("CCCCCl [1-chlorobutane] + CCCCO")
2.966

Exercise: Returns the measured viscosity for the input compound. Input: CCCCCl [1-chlorobutane] + CO
Key: 0.613
